We begin with a simple list: items and their reported protein stability index.
B1: C22orf15 (parent)
chain: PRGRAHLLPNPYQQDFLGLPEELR

- Variants of: B1
- ASSAY_INFO: protein stability index of a GFP-peptide fusion (GPS, HEK-293T) (PSI 1-6); higher = more stable;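 also: lentivirally expressed fusions sorted by FACS into six bins by GFP to DsRed ratio, PSI derived from sequencing read proportions per bin multiplied by bin number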
- RUN_CONDITIONS: c terminus: a fixed tail appended

Use these answered entries as a reference point.
{"ENTRY_SEQUENCE": "PRGRAHLLPNPYQQDFLGEPEELR [L19E]", "REPORTED_MEASUREMENT": 4.5}
{"ENTRY_SEQUENCE": "PRDRAHLLPNPYQQDFLGLPEELR [G3D]", "REPORTED_MEASUREMENT": 4.03}
{"ENTRY_SEQUENCE": "PRGRAHWLPNPYQQDFLGLPEELR [L7W]", "REPORTED_MEASUREMENT": 3.24}
{"ENTRY_SEQUENCE": "PRGRLHLLPNPYQQDFLGLPEELR [A5L]", "REPORTED_MEASUREMENT": 3.12}
{"ENTRY_SEQUENCE": "PRGRAHLLKNPYQQDFLGLPEELR [P9K]", "REPORTED_MEASUREMENT": 3.73}
{"ENTRY_SEQUENCE": "ARGRAHLLPNPYQQDFLGLPEELR [P1A]", "REPORTED_MEASUREMENT": 3.34}
{"ENTRY_SEQUENCE": "PRGRAHLLPNGYQQDFLGLPEELR [P11G]", "REPORTED_MEASUREMENT": 4.3}
{"ENTRY_SEQUENCE": "PRGRAHLLPNPYAQDFLGLPEELR [Q13A]", "REPORTED_MEASUREMENT": 3.7}

Lookup result for PRGRAHLLPNPYQQDFLGLPEEKR [L23K] ; measured protein stability index: 4.63

Looking up PRGRAHLLPNPYQQDFLGNPEELR [L19N] , I found its protein stability index recorded as 4.1

For record PRGRAHLLPNPYQQDFLKLPEELR [G18K] the listed protein stability index is 4.13

Item: PRGRAHLLPNPYQQDFLGLKEELR [P20K] | protein stability index: 3.38

PRGRAHLLHNPYQQDFLGLPEELR [P9H] has a reported protein stability index of 3.29

Memo: PRGRAHLLPNPYQQDSLGLPEELR [F16S] , reported protein stability index: 3.83

Entry PRGRAHRLPNPYQQDFLGLPEELR [L7R] ; protein stability index = 4.12

Per the records, this variant ( PRGRAHLLDNPYQQDFLGLPEELR [P9D] ) has protein stability index equal to 3.79

Short answer for PRGRGHLLPNPYQQDFLGLPEELR [A5G] : protein stability index was 3.63

Value of measured protein stability index for the entry PRGRAHLLPNPYQQDFLGVPEELR [L19V] : 4

protein stability index recorded for this variant, PRGRRHLLPNPYQQDFLGLPEELR [A5R] , is 3.34

protein stability index reading for PRGRAHLLPNPYQQDFLGLPEEMR [L23M] : 4.33

Summary for this variant, PRGRAHLLPNPSQQDFLGLPEELR [Y12S] : protein stability index is 4.54

The recorded protein stability index for entry PRGRAHLLPNPYQQDFLGTPEELR [L19T] equals 4.26
